system: MOLT-4; test: NCI tumour cell line growth inhibition, 48 h
The source made the active and inactive calls. Cut-off read from the data, not from the text of the source: active = GI50 up to about 1.1 µM and inactive = higher.
Entries annotated with measured GI50
TEST_READOUT: GI50

{"columns": ["MOLECULE", "TEST_READOUT", "ASSAY_VALUE"],
 "data": [
  ["O=C1Nc2ccc([N+](=O)[O-])cc2/C1=N/NC(=S)Nc1ccc([N+](=O)[O-])cc1", "GI50", "35.9 µM (inactive)"],
  ["N#CC1=C(N)N(/N=C/c2ccccc2)C(c2ccccc2)C1(C#N)C#N (stereo not given)", "GI50", "2.23 µM (inactive)"],
  ["CCOc1ccc(OCC(=O)O)c2c1CCCC2=O", "GI50", "> 100 µM (inactive)"],
  ["CCOC(=O)C1CC(O)C(=O)N1C (stereo not given)", "GI50", "> 100 µM (inactive)"],
  ["O=C(Nc1ccccc1)c1cc(S(=O)(=O)Nc2nc3cccnc3[nH]2)c(SSc2cc(Cl)c(C(=O)Nc3ccccc3)cc2S(=O)(=O)Nc2nc3cccnc3[nH]2)cc1Cl", "GI50", "> 100 µM (inactive)"]
]}
